Ratio over Background values by entry
Molecular target: T1, Soluble IGF-1R (sIGF-1R), R&D Systems Cat. # 391-GR/CF (UniProt P08069 31-935, limits assumed)
T1 construct: extracellular domain
Experiment: phage ELISA
MEASURED_PROPERTY: Ratio over Background

* CCTTEMVVMDARDDPFYHKLSELVTGG [B6Hα-1-B5-IR] | 20.5
* AVRATRFDEAFYDWFVRQISDGQGNK [H2CA-4-F6-IGFR] | 7.3
* QGGSASFYDAIDRLLRMRIGG [20E2A-4-F11-IGFR] | 18.8
* RCQGTGFYTCIQELIGFGDPD [20E2B-4-H9-IGFR] | 5.2
* VEGRGLFYDLLRQLLARRQNG [20E2B-3-C6-IGFR] | 16.8
* QPAPDGFYSALMKLIGRGGVS [20E2B-3-C8-IGFR] | 15.6
* KLHNLMFYYGLQRLVWGAGLG [20E2B-4-H3-IGFR] | 14.8
